# System: OAT1/3
# MEASUREMENT_DESCRIPTION: Bottom-up IVIVE of CLint,sec, CLsec and CLr, relative activity factor (RAF) approach
# Set-up: species or system human
TEST_READOUT: CLsec Predicted 4% HSA (L/h)

CPD_SMILES	SUBJECT_OF_TEST	CLsec Predicted 4% HSA [L/h]
CC(C)c1nc(N(C)S(C)(=O)=O)nc(-c2ccc(F)cc2)c1/C=C/[C@@H](O)C[C@@H](O)CC(=O)O	OAT1/3	8.27
CCCc1nc(C(C)(C)O)c(C(=O)O)n1Cc1ccc(-c2ccccc2-c2nnn[nH]2)cc1	OAT1/3	2.40

[a] Cc1ncc(CO)c(C(=O)O)c1O
[b] O=C(NC[C@H]1CN(c2ccc(N3CCOCC3=O)cc2)C(=O)O1)c1ccc(Cl)s1
Given a and given b , which shows the smaller recorded CLsec Predicted 4% HSA? // respond with label for picked entry
a
(a: 2.57 L/h, b: 15.4 L/h)

* * *

# MEASUREMENT_CONTEXT: human, in vivo
TEST_READOUT: CLsec Observed (L/h)

Here's what some known entries look like.
MOLECULE	ASSAY_VALUE
NS(=O)(=O)c1cc(C(=O)O)c(NCc2ccco2)cc1Cl [furosemide]	5.07
CC(C)c1nc(N(C)S(C)(=O)=O)nc(-c2ccc(F)cc2)c1/C=C/[C@@H](O)C[C@@H](O)CC(=O)O	11.1

[a] O=C(NC[C@H]1CN(c2ccc(N3CCOCC3=O)cc2)C(=O)O1)c1ccc(Cl)s1
[b] CCCCNc1cc(C(=O)O)cc(S(N)(=O)=O)c1Oc1ccccc1 [bumetanide]
[c] CCC(CC)O[C@@H]1C=C(C(=O)O)C[C@H](N)[C@H]1NC(C)=O [oseltamivir carboxylate]
Put the entries in order of CLsec Observed, starting with the largest number. Write the labels out in the order the request specifies.
c, b, a
(c: 8.29 L/h, b: 5.51 L/h, a: 2.63 L/h)

* * *

# System: OAT1/3
# MEASUREMENT_DESCRIPTION: Bottom-up IVIVE of CLint,sec, CLsec and CLr, relative activity factor (RAF) approach
# Set-up: species or system human
TEST_READOUT: CLsec Predicted 0% HSA (L/h)

MOLECULE	UNIT_ABBREV	ASSAY_VALUE
CC(C)c1nc(N(C)S(C)(=O)=O)nc(-c2ccc(F)cc2)c1/C=C/[C@@H](O)C[C@@H](O)CC(=O)O [rosuvastatin]	L/h	3.64
O=C(NC[C@H]1CN(c2ccc(N3CCOCC3=O)cc2)C(=O)O1)c1ccc(Cl)s1 [rivaroxaban]	L/h	2.32

[1] CCCc1nc(C(C)(C)O)c(C(=O)O)n1Cc1ccc(-c2ccccc2-c2nnn[nH]2)cc1 [olmesartan]
[2] Cc1ncc(CO)c(C(=O)O)c1O [4-pyridoxic acid]
Among 1 and 2 , whose measured CLsec Predicted 0% HSA is the smaller figure? Lab note: record the label of whichever item you select.
1
(1: 0.09 L/h, 2: 0.74 L/h)

* * *

# SUBJECT_OF_TEST: OAT3 (Homo sapiens)
# Sequence (Q8TCC7 whole entry): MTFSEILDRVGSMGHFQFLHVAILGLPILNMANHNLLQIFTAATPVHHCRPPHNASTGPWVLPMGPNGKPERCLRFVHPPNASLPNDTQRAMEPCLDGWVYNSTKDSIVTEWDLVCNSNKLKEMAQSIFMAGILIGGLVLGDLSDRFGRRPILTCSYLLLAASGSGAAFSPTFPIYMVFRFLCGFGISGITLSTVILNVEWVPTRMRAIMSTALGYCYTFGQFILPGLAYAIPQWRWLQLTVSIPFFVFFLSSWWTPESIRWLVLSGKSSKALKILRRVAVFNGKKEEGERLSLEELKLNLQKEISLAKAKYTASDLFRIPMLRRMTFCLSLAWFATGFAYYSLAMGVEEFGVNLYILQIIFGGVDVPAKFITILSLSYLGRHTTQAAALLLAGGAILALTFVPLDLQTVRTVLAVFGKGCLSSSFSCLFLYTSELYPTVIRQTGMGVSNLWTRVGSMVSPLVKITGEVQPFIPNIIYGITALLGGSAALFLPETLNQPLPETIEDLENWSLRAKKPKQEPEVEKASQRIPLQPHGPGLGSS
# MEASUREMENT_DESCRIPTION: OAT3 uptake study in ciPTEC-OAT3
# MEASUREMENT_CONTEXT: eq 4 fitted to CLint,u,active, mean ± S.D.
TEST_READOUT: Vb,max OAT3, Active Uptake Only (pmol/min/mg)

# example entries with known answers
COMPOUND	Vb,max OAT3, Active Uptake Only, pmol/min/mg
O=C(NC[C@H]1CN(c2ccc(N3CCOCC3=O)cc2)C(=O)O1)c1ccc(Cl)s1 [rivaroxaban]	714
NS(=O)(=O)c1cc(C(=O)O)c(NCc2ccco2)cc1Cl [furosemide]	453
Cc1ncc(CO)c(C(=O)O)c1O [4-pyridoxic acid]	51.9
CCCCNc1cc(C(=O)O)cc(S(N)(=O)=O)c1Oc1ccccc1 [bumetanide]	470
CC(C)c1nc(N(C)S(C)(=O)=O)nc(-c2ccc(F)cc2)c1/C=C/[C@@H](O)C[C@@H](O)CC(=O)O [rosuvastatin]	281

[1] CCCc1nc(C(C)(C)O)c(C(=O)O)n1Cc1ccc(-c2ccccc2-c2nnn[nH]2)cc1 [olmesartan]
[2] CCC(CC)O[C@@H]1C=C(C(=O)O)C[C@H](N)[C@H]1NC(C)=O [oseltamivir carboxylate]
Parameter metric = Vb,max OAT3, Active Uptake Only. Return the lower-valued option from 1 and 2 . // output: label of the selected item
2
(2: -1120 pmol/min/mg, 1: 44.2 pmol/min/mg)
